In what follows, each item is paired with its Ki for Adenosine receptor A1 (Rattus norvegicus).
Use µM as the unit, but write only the number.

- COMPOUND: "O=C1c2ccccc2OC(c2ccccc2O)C1O (configuration not stated)"
  Ki (µM): 91.9

Exercise: # value lookup — system Adenosine receptor A1 (Rattus norvegicus), readout Ki, item O=C1CC(c2ccc(O)cc2)Oc2ccccc21 (configuration not stated) [4'-HYDROXY-FLAVANONE]
Key: 11.5

----------
test system: Adenosine A1 receptor (Rattus norvegicus) / A3 receptor (Homo sapiens); assay: Ratio of binding affinities between rA1 and human A3.
In this section we review reported Ratio values for a set of molecules.

Exercise: Recorded Ratio for `CCCOc1cc(OCCC)c2c(=O)c(OCCC)c(-c3ccccc3)oc2c1` , please?
Key: 3.5

----------
Biological target: Adenosine receptor A3 (Rattus norvegicus, UniProt P28647)
Sequence (P28647 whole entry): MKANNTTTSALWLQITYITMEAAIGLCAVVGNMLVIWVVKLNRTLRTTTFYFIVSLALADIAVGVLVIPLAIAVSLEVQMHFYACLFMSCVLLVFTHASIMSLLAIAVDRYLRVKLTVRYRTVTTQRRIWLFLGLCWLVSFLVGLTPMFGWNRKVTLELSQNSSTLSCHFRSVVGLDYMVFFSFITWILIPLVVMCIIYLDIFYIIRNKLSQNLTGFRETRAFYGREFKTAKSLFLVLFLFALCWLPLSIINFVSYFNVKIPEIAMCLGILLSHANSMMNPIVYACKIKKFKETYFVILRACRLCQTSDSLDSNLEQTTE
PROPERTY NAME: Ki (µM)
Use µM as the unit, but write only the number.

Exercise: Recorded Ki for `CCOc1cc(OCC)c2c(=O)c(OCC)c(-c3ccccc3)oc2c1` , please?
Key: 18.2

----------
molecular target: Adenosine A2 receptor (Rattus norvegicus, UniProt P29276+P30543); assay: Binding affinity at Adenosine A2 receptor in rat striatal membranes by [3H]-CGS- 21680 displacement.; format: cell membranes, Striatum, Membrane
Classification scheme (Ki): band A: < 20 µM; band B: ≥ 20 µM and < 40 µM; band C: ≥ 40 µM

Reference set, count: 3
- MOLECULE: "O=C1CC(c2ccccc2O)Oc2ccccc21 (stereo unspecified) [2'-HYDROXY-FLAVANONE]"
  ANSWER LABEL: "band A"
- MOLECULE: "CCOc1cc(O)c2c(=O)c(OCC)c(-c3ccccc3)oc2c1"
  ANSWER LABEL: "band C"
- MOLECULE: "COc1cc(OC)c2c(=O)c(OC)c(-c3ccccc3)oc2c1"
  ANSWER LABEL: "band A"

Exercise: Looking at `COc1c2ccoc2cc2oc(/C=C/c3ccccc3)cc(=O)c12` , which class would you pick?
Key: band A

Exercise: Looking at COc1cc(O)c2c(c1)OC(c1ccc(O)cc1)CC2=O (stereo unspecified) , which class would you pick?
Key: band B

Exercise: Looking at `O=c1c(Cl)c(-c2ccccc2)oc2ccc(Cl)cc12` , which class would you pick?
Key: band C

----------
Target: Adenosine receptor A3 (Homo sapiens)
Sequence (P0DMS8 whole entry): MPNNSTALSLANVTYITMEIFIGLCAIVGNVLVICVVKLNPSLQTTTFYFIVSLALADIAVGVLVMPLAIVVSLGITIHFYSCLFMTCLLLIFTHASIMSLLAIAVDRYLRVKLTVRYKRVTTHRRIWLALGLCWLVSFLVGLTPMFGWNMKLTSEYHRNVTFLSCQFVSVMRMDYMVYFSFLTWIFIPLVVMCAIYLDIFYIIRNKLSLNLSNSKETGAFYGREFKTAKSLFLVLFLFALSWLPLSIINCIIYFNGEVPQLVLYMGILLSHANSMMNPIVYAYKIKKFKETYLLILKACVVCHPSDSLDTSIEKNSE
Assay: Binding affinity against human adenosine A3 receptor in HEK293 cells using [125I]AB-MECA […] radioligand.
Assay type: cell-based
In this section we review reported pKi values for a set of compounds.
The scale used: pKi is minus the common logarithm of the concentration in molar units.

Below, 8 compounds whose answers are already recorded.
- COMPOUND: "CSc1sc(C(=O)NN)c2c1C=CCC2"
  TEST TARGET: "Adenosine receptor A3 (Homo sapiens)"
  REPORTED RESULT: 4.89
- COMPOUND: "OC12CCCCC1=Nc1ccccc12 (centres undefined)"
  TEST TARGET: "Adenosine receptor A3 (Homo sapiens)"
  REPORTED RESULT: 4.66
- COMPOUND: "O=c1c(Cl)c(-c2ccccc2)oc2ccc(Cl)cc12"
  TEST TARGET: "Adenosine receptor A3 (Homo sapiens)"
  REPORTED RESULT: 6.13
- COMPOUND: "OCCN(CCO)C1=NC(N2CCCCC2)c2nc(N(CCO)CCO)nc(N3CCCCC3)c2N1 (centres undefined)"
  TEST TARGET: "Adenosine receptor A3 (Homo sapiens)"
  REPORTED RESULT: 4.72
- COMPOUND: "O=S(=O)(c1cccc2cnccc12)N1CCNCC1"
  TEST TARGET: "Adenosine receptor A3 (Homo sapiens)"
  REPORTED RESULT: 4.60
- COMPOUND: "Nc1nc2ncc(NCc3ccc(C(=O)NC(CCC(=O)O)C(=O)O)cc3)nc2c(=O)[nH]1 (centres undefined)"
  TEST TARGET: "Adenosine receptor A3 (Homo sapiens)"
  REPORTED RESULT: 4.55
- COMPOUND: "COc1cc2oc(-c3ccc(O)cc3O)c(CC=C(C)C)c(=O)c2c(O)c1/C=C/C(C)C"
  TEST TARGET: "Adenosine receptor A3 (Homo sapiens)"
  REPORTED RESULT: 5.34
- COMPOUND: "COc1c2ccoc2cc2oc(/C=N/c3ccccc3)cc(=O)c12"
  TEST TARGET: "Adenosine receptor A3 (Homo sapiens)"
  REPORTED RESULT: 5.04

Exercise: Recorded pKi for `O=c1c(Cl)c(-c2ccccc2)oc2ccccc12` , please?
Key: 4.94

Exercise: Recorded pKi for C=C1C(C)C2C(Cc3ccccc3)NC(=O)C23C(OC(C)=O)/C=C\C(C)(O)CC(C)C/C=C/C3C1O (centres undefined) , please?
Key: 4.64

Exercise: Recorded pKi for `CCOc1c2ccoc2cc2oc(/C=C/C=C/c3ccccc3)cc(=O)c12` , please?
Key: 4.34

----------
In this section we review reported Ratio values for a set of molecules.
system: Adenosine A1 receptor (Rattus norvegicus) / A3 receptor (Homo sapiens); assay: Ratio of binding affinities between rA1 and human A3.

Below, 5 molecules whose answers are already recorded.
- MOLECULE: "COc1c2ccoc2cc2oc(/C=C/c3ccccc3)cc(=O)c12"
  TEST TARGET: "Adenosine A1 receptor (Rattus norvegicus) / A3 receptor (Homo sapiens)"
  Ratio: 0.37
- MOLECULE: "O=C1c2ccccc2OC(c2ccccc2O)C1O (centres undefined)"
  TEST TARGET: "Adenosine A1 receptor (Rattus norvegicus) / A3 receptor (Homo sapiens)"
  Ratio: "< 1"
- MOLECULE: "COc1ccc2c(c1)C(=O)[C@H](O)[C@@H](/C=C/c1ccccc1)O2 (relative stereo)"
  TEST TARGET: "Adenosine A1 receptor (Rattus norvegicus) / A3 receptor (Homo sapiens)"
  Ratio: "> 8"
- MOLECULE: "CCOc1ccc(-c2oc3cc(OCC)cc(O)c3c(=O)c2OCC)c(OCC)c1"
  TEST TARGET: "Adenosine A1 receptor (Rattus norvegicus) / A3 receptor (Homo sapiens)"
  Ratio: "> 40"
- MOLECULE: "CCOc1c2ccoc2cc2oc(/C=C/C=C/c3ccccc3)cc(=O)c12"
  TEST TARGET: "Adenosine A1 receptor (Rattus norvegicus) / A3 receptor (Homo sapiens)"
  Ratio: "> 4"

Exercise: Recorded Ratio for `O=c1c(Cl)c(-c2ccccc2)oc2ccc(Cl)cc12` , please?
Key: > 100

Exercise: Recorded Ratio for `COc1cc(OC)c(-c2oc3ccccc3c(=O)c2O)c(OC)c1` , please?
Key: 0.15

Exercise: Recorded Ratio for `COc1c2ccoc2cc2oc(C=O)cc(=O)c12` , please?
Key: > 2

Exercise: Recorded Ratio for `COc1c2ccoc2cc2oc(/C=N/c3ccccc3)cc(=O)c12` , please?
Key: > 20

----------
target: Adenosine A2 receptor (Rattus norvegicus, UniProt P29276+P30543); assay: Binding affinity at Adenosine A2 receptor in rat striatal membranes by [3H]-CGS- 21680 displacement.; format: cell membranes, Striatum, Membrane
In this section we review reported Ki values for a set of compounds.
Use µM as the unit, but write only the number.

- SMILES NOTATION: "O=c1cc(-c2ccccc2)oc2ccccc12"
  TEST TARGET: "Adenosine A2 receptor (Rattus norvegicus, UniProt P29276+P30543)"
  UNITS LABEL: "µM"
  Ki: 3.45

Next compound, Ki to be filled in.
Exercise: # value lookup — system Adenosine A2 receptor (Rattus norvegicus, UniProt P29276+P30543), readout Ki, item `CCOc1c2ccoc2cc2oc(/C=C/c3ccccc3)cc(=O)c12`
Key: 33.8

The reported measurements were obtained from ChEMBL document CHEMBL1129333.
